assay: RAM pathway blockade in budding yeast – dse1pr::URA3 reporter, 5-FOA selection, pilot screen (AID 869);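 further: 0% = DMSO wells with no growth and 100% = 10 µM 1-NA-PP1 with full growth; RAM network block rescues cells from 5-FOA so hits raise OD615 growth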; conditions: S. cerevisiae dse1pr::URA3 5-FOA growth, OD615, 2 d, at 10 µM, hits give high values
Active and inactive are the calls of the source.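 How the source made its calls: active means inhibition over a set limit, the all-compound mean plus 3 SD, in both replicate runs; inconclusive means over that limit in just one replicate run; inactive means at or under that limit in both runs.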
Here the recorded inhibition is given for each entry.
experimental-readout: inhibition

# molecule, recorded-measurement
measured = [
    ("CCCOC(=O)COc1cc(C)cc2oc(=O)c3c(c12)CCC3", "1.03% (inactive)"),
    ("C[C@H]1CCC[C@@H](O)CCC/C=C/c2cc(O)cc(O)c2C(=O)O1", "0.64% (inactive)"),
    ("CCCCP(=O)(O)c1ccccc1", "1.03% (inactive)"),
    ("CCOc1ccc(C2SCC(=O)Nc3c2c(=O)[nH]n3C2CCCCCC2)cc1 (centres undefined)", "2.26% (inactive)"),
    ("NC(=O)CN1CC(c2ccccc2)CC1=O (centres undefined)", "0.295% (inactive)"),
    ("O=C(CN1CC(c2ccccc2)CC1=O)NCc1ccc(F)cc1 (centres undefined)", "2.63% (inactive)"),
    ("CN1CC=C(c2c[nH]c3ccccc23)CC1", "-0.185% (inactive)"),
    ("O=C(c1cccs1)C1CN2CCC1CC2 (centres undefined)", "0.375% (inactive)"),
    ("Cc1nc2ccc(Cl)cn2c1P(=S)(N1CCOCC1)N1CCOCC1", "0.175% (inactive)"),
    ("CC(=O)Nc1ccc(OC(=O)c2ccccc2N)cc1", "1.02% (inactive)"),
    ("CN(C)C(=O)Oc1ccc(OC(=O)N(C)C)cc1", "1.02% (inactive)"),
    ("Cc1cc(OCC(=O)NC2CCS(=O)(=O)C2)c2c3c(c(=O)oc2c1)CCC3 (centres undefined)", "1.55% (inactive)"),
    ("Nc1ccc(S(=O)(=O)N2CCCCC2c2cccnc2)cc1 (centres undefined)", "0.625% (inactive)"),
    ("CCOC(=O)C1SC2(C(F)(F)C(F)F)CC1(O)c1c(c(OC)c3occc3c1OC)O2 (centres undefined)", "1.6% (inactive)"),
    ("CCCCn1c(C)c(C(=O)OCC)c2c(CN3CCOCC3)c(O)ccc21", "-0.155% (inactive)"),
    ("CCOC(=O)c1c(C)n(Cc2ccccc2)c2ccc(OCC(O)Cn3nc(C)nc3C)cc12 (centres undefined)", "-0.42% (inactive)"),
    ("COc1ccc2nc(NC(=O)CCc3nc(C4=CCN(C)CC4)no3)sc2c1", "2.04% (inactive)"),
    ("O=C(NC1(C(F)(F)F)Oc2ccccc2O1)N1CCC2(CC1)OCCO2", "0.465% (inactive)"),
    ("CCCCCCOc1ccc(CN2CCN(C)CC2)cc1", "-0.45% (inactive)"),
    ("CC(=O)Nc1ccc(OC(=O)N(C)c2ccccc2)cc1", "3.04% (inactive)"),
    ("CCOC(=O)c1c(N)n(Cc2ccco2)c2nc3ccccc3nc12", "1.18% (inactive)"),
    ("Cc1ccc2cccc(OC(=O)N(C)c3ccccc3)c2n1", "1.67% (inactive)"),
    ("COCCOC(=O)C1=C(N)OC(C)=C(C(=O)OC)C12C(=O)Nc1ccccc12 (centres undefined)", "2.54% (inactive)"),
]

====

Parameter viability increase: see the listing below.
assay: doxorubicin toxicity protection in MRP-1 cells – H69AR cells, CellTiter-Glo, duplicate, MRP-1 activator project, pilot screen (AID 807); conditions: H69AR viability with doxorubicin, CellTiter-Glo luminescence; at 10 µM; hits give high values;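 further: compound pretreatment 18-22 h then 72 h combined with doxorubicin; 0% = doxorubicin alone and 100% = vehicle without doxorubicin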
experimental-readout: viability increase (%)

# compound, experimental-readout, recorded-measurement
measured = [
    ("O=C(C(Cc1ccccc1)NS(=O)(=O)c1ccc(F)cc1)N1CCC2(CC1)OCCO2 (stereo unspecified)", "viability increase", -3.5),
    ("Cc1ccnc(-n2c(C)nc3ccccc3c2=O)c1", "viability increase", -2.48),
    ("C=Cn1ccnc1P(=S)(c1c(C)nn(-c2ccccc2)c1C)c1nccn1C=C", "viability increase", -2.8),
    ("COc1ccc(C2C(C(=O)N3CCC4(CC3)OCCO4)CC(=O)N2c2ccc(OC)cc2)cc1 (stereo unspecified)", "viability increase", -3.2),
    ("COc1ccc2[nH]c(C)c(CCN3CCC(=O)C(C)C3C)c2c1 (stereo unspecified)", "viability increase", -2.73),
    ("O=C1CC(=O)N(c2ccc(Cl)cc2Cl)C(=O)N1", "viability increase", 0.06),
    ("Cc1ccc2cccc(OC(=O)N(C)c3ccccc3)c2n1", "viability increase", -0.64),
    ("COc1ccc(CN2CC3CC(C2)c2cccc(=O)n2C3)cc1OC (stereo unspecified)", "viability increase", -1.47),
    ("O=C1CC(N2CC=C(c3ccccc3)CC2)C(=O)N1c1ccc(F)cc1 (stereo unspecified)", "viability increase", 3.41),
    ("CN1C(=O)C(Cc2cccs2)C(=O)N(C)C1=O", "viability increase", 0),
    ("CN1CCN(c2ccc(NC(=O)C(C)(C)C)cc2)CC1", "viability increase", -1.56),
]

====

Reported inhibition values for a set of compounds
target: Pantothenate synthetase (Mycobacterium tuberculosis (strain ATCC 25618 / H37Rv)) (UniProt P9WIL5); experiment: Coupled enzyme confirmation of inhibitors against recombinant Mtb PanC (AID 375); settings: coupled enzyme assay; at 10 µM, hits give high values;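 further: 0% = full reaction with vehicle and 100% = no enzyme background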
Sequence (P9WIL5 whole entry, looked up): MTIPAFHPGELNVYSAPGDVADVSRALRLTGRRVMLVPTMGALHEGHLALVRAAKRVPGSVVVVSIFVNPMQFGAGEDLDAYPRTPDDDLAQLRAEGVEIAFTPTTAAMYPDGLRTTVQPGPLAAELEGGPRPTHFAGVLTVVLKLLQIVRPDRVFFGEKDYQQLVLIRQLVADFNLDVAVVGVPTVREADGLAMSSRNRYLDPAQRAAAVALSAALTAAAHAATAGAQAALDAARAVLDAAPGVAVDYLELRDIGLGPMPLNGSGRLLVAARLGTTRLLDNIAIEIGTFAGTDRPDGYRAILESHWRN

# substance-smiles, inhibition (%)
measured = [
    ("O=C(O)c1cccc(S(=O)(=O)N2CCOCC2)c1", 2),
    ("Cc1cc(Nc2ccccc2N2CCOCC2)n2ncnc2n1", 0),
    ("CC(=O)N1CCN(Cc2ccc(Br)s2)CC1", 0),
    ("O=c1c2cnn(-c3ccccc3)c2ncn1/N=C/c1ccncc1", 5),
    ("Clc1ccc(CSc2nnc(Cn3cnc4ccccc43)o2)cc1", 0),
    ("COc1ccc(N2CCN(c3oc(COc4ccccc4)nc3C#N)CC2)cc1", 0),
]

====

assay: yeast transport mutant growth inhibition pilot in 384-well plates, post-Golgi transport modulator project (AID 636); conditions: absorbance 615 nm, about 18 h, hits give high values
experimental-readout: inhibition (%)

# compound, unit-of-measure, recorded-measurement
rows = [
    ("CC(CCc1ccccc1)NC(C)C(O)c1ccc(O)cc1 (stereo unspecified)", "%", -0.26),
    ("Cc1cccc(C2=NCC(=O)N(CC(=O)NCc3ccco3)c3sc4c(c32)CCCC4)c1", "%", -6.49),
    ("CCCNS(=O)(=O)c1ccc(OCC(=O)N2CCN(Cc3ccccc3)CC2)cc1", "%", -5.07),
    ("CC(C)OC(=O)c1c(N)n(CC2CCCO2)c2nc3ccccc3nc12 (stereo unspecified)", "%", -1.58),
    ("Cc1cc(OCC(=O)O)c2c3c(c(=O)oc2c1)CCCC3", "%", -4.16),
    ("CCOC(=O)C1CCCCC12C(C#N)=C(N)Oc1n[nH]c(C)c12 (stereo unspecified)", "%", 0.66),
    ("CC(C)C(=O)N1CCN(CCN=Cc2c(O)n(C)c(=O)n(C)c2=O)CC1", "%", -5.39),
    ("Cc1nn(Cc2ccccc2Cl)c(Cl)c1C(=O)OCC(=O)NCc1ccco1", "%", -3.2),
    ("COc1ccc(CN2CCN(c3ccccc3F)CC2)c(OC)c1", "%", -4.46),
    ("C[C@H]1CCC/C=C/C2C[C@H](O)CC2[C@H](O)/C=C/C(=O)O1 (stereo partly specified)", "%", -2.08),
    ("CCCCn1c(O)c(C(CC)=Nc2cccc(C(=O)O)c2)c(=O)[nH]c1=O", "%", -2.67),
]
